B1: glmS ribozyme (parent)
chain: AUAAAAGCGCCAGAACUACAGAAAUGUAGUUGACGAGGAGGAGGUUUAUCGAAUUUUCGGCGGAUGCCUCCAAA

Variants of: B1
PROCEDURE_DETAILS: self-cleavage kobs at 640 uM GlcN6P; higher = faster cleavage; RNA array
CONDITION: with glucosamine-6-phosphate
Fewer inactive variants are shown than the library holds.
Assign criterion met to entries whose self-cleavage kobs at 640 uM GlcN6P meets or exceeds 0.0002 s⁻¹; assign criterion not met to the rest.

MUTANT_ID: U30A U31A G66A
CLASS_NAME: criterion met
--
MUTANT_ID: G35C G37C U46C G63U
CLASS_NAME: criterion not met
--
MUTANT_ID: C10G A48G A64U U65A
CLASS_NAME: criterion not met
--
MUTANT_ID: C11G U46G C61A G66A
CLASS_NAME: criterion not met
--
MUTANT_ID: C8A C16A A39U G59U
CLASS_NAME: criterion not met

Read the next record carefully.
Evaluate G41C G66C : self-cleavage kobs at 640 uM GlcN6P at minimum 0.0002 s⁻¹?
criterion not met
